testTarget: LRRK2 (endogenous, HiBit tagged) (Homo sapiens)
Construct: endogenous in cells; host or cells: HEK293 cells with HiBit knock-in at the endogenous LRRK2 locus, stably expressing firefly luciferase
assayProcedure: Endogenous LRRK2 degradation assay, endogenous gene C-terminally HiBit-tagged in HEK293 cells (Nano-Glo Dual Luciferase)
Type: cell-based
conditionSet: endogenous HiBit-tagged LRRK2 in HEK293 cells, 24 hours treatment; read-out: Endogenous WT DC50
// reported DC50 for each item listed

1) COc1c(N2CCC(O[C@H]3CC[C@H](CN4CCN(c5cc(-c6[nH]nc7ccc(OC8(C)CC8)cc67)ncn5)CC4)CC3)CC2)ccc2c1CN(C1CCC(=O)NC1=O)C2=O (stereo partly shown) [Compound 238] = < 10 nM

Exercise: Endpoint output: DC50 of COc1cc(N2CCC(CN3CCN(CC4CCN(c5cc(-c6n[nH]c7ccc(OC8(C)CC8)cc67)ncn5)CC4)CC3)CC2)cc2c1C(=O)N(C1CCC(=O)NC1=O)C2 (stereo not shown) [Compound 215] . Value?
Solution: < 10 nM

Exercise: Next compound up: CC1(Oc2ccc3n[nH]c(-c4cc(N5CCN(C[C@H]6CC[C@H](OC7CCN(c8cc9c(cc8F)C(=O)N(C8CCC(=O)NC8=O)C9)CC7)CC6)CC5)ncn4)c3c2)CC1 (stereo partly shown) [Compound 235]
Solution: < 10 nM

Exercise: Another: CC1(Oc2ccc3[nH]nc(-c4cc(N5CCC(CN6CCN(CC7CCN(c8ccc9c(c8F)CN(C8CCC(=O)NC8=O)C9=O)CC7)CC6(C)C)CC5)ncn4)c3c2)CC1 (stereo not shown) [Compound 224]
Solution: < 10 nM

Exercise: Then what about the compound COc1c(N2CCC(CN3CCN(CC4CCN(c5cc(-c6n[nH]c7cnc(OC8(C)CC8)cc67)ncn5)CC4)CC3)CC2)ccc2c1CN(C1CCC(=O)NC1=O)C2=O (stereo not shown) [Compound 253] ?
Solution: < 10 nM

Exercise: Could you do the same for CC1(Oc2ccc3n[nH]c(-c4cc(N5CCN(C[C@H]6CC[C@H](OC7CCN(c8ccc9c(c8F)CN(C8CCC(=O)NC8=O)C9=O)CC7)CC6)CC5)ncn4)c3c2)CC1 (stereo partly shown) [Compound 234] , please?
Solution: < 10 nM

Exercise: Cool, now CC1(Oc2cc3c(-c4cc(N5CCN(C[C@H]6CC[C@H](CN7CCN(c8ccc9c(c8F)CN(C8CCC(=O)NC8=O)C9=O)CC7)CC6)CC5)ncn4)n[nH]c3cc2F)CC1 (stereo partly shown) [Compound 203]
Solution: < 10 nM

----------
testTarget: LRRK2 (endogenous, HiBit tagged) (Homo sapiens, UniProt Q5S007)
Construct: endogenous in cells; host or cells: HEK293 cells with HiBit knock-in at the endogenous LRRK2 locus, stably expressing firefly luciferase
Sequence (Q5S007 whole entry): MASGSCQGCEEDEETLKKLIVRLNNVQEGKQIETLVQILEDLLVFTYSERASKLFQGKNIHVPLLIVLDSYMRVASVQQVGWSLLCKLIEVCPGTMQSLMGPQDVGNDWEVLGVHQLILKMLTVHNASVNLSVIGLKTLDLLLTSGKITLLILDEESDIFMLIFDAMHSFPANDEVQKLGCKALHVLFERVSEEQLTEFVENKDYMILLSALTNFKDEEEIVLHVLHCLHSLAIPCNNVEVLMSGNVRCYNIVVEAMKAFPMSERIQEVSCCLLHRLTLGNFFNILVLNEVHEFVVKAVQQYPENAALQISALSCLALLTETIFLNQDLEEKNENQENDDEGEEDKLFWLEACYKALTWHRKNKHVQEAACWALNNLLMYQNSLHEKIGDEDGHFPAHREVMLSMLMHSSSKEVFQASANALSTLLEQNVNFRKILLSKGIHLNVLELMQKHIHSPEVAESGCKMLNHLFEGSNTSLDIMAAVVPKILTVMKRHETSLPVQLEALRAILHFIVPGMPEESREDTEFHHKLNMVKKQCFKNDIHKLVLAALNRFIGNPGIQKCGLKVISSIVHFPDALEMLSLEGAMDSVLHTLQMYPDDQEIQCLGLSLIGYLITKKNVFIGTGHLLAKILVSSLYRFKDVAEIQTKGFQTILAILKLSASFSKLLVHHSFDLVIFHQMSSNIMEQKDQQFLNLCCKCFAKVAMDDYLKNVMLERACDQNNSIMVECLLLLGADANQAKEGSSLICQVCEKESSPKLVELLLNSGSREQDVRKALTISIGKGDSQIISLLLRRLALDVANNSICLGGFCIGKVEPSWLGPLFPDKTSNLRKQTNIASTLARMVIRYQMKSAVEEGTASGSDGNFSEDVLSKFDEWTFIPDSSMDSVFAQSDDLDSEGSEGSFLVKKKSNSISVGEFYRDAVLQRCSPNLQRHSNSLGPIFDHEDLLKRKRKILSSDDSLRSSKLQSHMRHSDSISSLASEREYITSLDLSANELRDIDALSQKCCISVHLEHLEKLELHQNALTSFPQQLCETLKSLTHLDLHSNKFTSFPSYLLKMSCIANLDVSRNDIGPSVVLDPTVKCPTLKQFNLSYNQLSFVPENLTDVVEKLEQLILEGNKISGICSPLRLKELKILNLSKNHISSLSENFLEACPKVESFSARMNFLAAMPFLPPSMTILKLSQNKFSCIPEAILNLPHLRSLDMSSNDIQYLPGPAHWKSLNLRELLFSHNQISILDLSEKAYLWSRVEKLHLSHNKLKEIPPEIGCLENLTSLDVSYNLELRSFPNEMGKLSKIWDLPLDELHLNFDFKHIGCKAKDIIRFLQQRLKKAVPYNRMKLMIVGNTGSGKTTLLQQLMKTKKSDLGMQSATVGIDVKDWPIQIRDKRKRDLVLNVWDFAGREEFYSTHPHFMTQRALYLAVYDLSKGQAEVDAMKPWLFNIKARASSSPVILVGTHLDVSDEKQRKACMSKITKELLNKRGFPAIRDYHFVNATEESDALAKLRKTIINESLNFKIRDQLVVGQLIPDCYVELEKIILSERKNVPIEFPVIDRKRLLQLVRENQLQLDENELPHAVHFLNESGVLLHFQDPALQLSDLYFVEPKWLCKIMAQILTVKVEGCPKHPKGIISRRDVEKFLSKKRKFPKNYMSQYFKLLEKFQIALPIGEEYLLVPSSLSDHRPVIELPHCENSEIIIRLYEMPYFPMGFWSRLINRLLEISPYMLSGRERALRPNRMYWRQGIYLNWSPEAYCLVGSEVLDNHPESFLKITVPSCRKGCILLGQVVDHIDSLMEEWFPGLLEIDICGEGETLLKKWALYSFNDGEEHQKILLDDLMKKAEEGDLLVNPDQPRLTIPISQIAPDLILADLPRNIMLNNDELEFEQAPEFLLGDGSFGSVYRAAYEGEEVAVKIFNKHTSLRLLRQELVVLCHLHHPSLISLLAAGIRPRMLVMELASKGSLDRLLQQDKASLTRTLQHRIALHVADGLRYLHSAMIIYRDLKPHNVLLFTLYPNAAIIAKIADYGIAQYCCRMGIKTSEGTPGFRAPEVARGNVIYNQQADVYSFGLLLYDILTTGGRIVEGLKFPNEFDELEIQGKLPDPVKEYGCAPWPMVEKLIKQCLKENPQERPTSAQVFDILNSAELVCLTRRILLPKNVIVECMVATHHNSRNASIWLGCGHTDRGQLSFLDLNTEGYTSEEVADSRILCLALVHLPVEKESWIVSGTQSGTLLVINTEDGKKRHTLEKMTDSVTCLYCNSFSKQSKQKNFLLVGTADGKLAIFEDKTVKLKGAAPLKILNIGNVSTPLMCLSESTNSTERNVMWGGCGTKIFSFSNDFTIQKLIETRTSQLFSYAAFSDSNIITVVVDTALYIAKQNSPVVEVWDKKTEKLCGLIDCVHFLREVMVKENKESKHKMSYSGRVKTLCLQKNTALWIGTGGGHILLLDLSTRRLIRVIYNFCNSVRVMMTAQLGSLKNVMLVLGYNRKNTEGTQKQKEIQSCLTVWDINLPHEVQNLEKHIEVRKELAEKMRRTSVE
assayProcedure: Endogenous LRRK2 degradation assay, endogenous gene C-terminally HiBit-tagged in HEK293 cells (Nano-Glo Dual Luciferase)
Type: cell-based
conditionSet: endogenous HiBit-tagged LRRK2 in HEK293 cells, 24 hours treatment; read-out: Endogenous WT Dmax
// reported Dmax per item

Consider the following illustrative entries.
1) CC1(Oc2ccc3n[nH]c(-c4cc(N5CCC(O[C@H]6CC[C@H](CN7CCN(c8cc9c(cc8F)C(=O)N(C8CCC(=O)NC8=O)C9)CC7)CC6)CC5)ncn4)c3c2)CC1 (stereo partly drawn) [Compound 208] = 50 to 70%
2) CC1(Oc2ccc3n[nH]c(-c4cc(N5CCC(O[C@H]6CC[C@H](CN7CCN(c8ccc9c(c8F)CN(C8CCC(=O)NC8=O)C9=O)CC7)CC6)CC5)ncn4)c3c2)CC1 (stereo partly drawn) [Compound 213] = ≥ 70%

Now let's try a different one.
Exercise: Can you share its Dmax? I mean this compound: CC1(Oc2ccc3n[nH]c(-c4cc(N5CCC(CN6CCN(CC7CCN(c8c(F)ccc9c8CN(C8CCC(=O)NC8=O)C9=O)CC7)CC6)CC5)ncn4)c3c2)CC1 (stereo not drawn) [Compound 217]
Solution: 50 to 70%

----------
testTarget: LRRK2 (endogenous, HiBit tagged) (Homo sapiens, UniProt Q5S007)
Construct: endogenous in cells; host or cells: HEK293 cells with HiBit knock-in at the endogenous LRRK2 locus, stably expressing firefly luciferase
assayProcedure: Endogenous LRRK2 degradation assay, endogenous gene C-terminally HiBit-tagged in HEK293 cells (Nano-Glo Dual Luciferase)
Format: cell-based
conditionSet: endogenous HiBit-tagged LRRK2 in HEK293 cells, 24 hours treatment; read-out: **Endogenous WT Dmax (%)
Dmax by entry:

1) CC1(Oc2ccc3[nH]nc(-c4cc(N5CCC(O[C@H]6CC[C@H](CN7CCN(c8c(F)cc9c(c8F)CN(C8CCC(=O)NC8=O)C9=O)CC7)CC6)CC5)ncn4)c3c2)CC1 (stereo partly shown) [Compound 269] = 50 to 70%
2) COc1c(N2CCC(CN3CC[C@@H](OC4CCN(c5cc(-c6n[nH]c7ccc(OC8(C)CC8)cc67)ncn5)CC4)CC3(C)C)CC2)ccc2c1CN(C1CCC(=O)NC1=O)C2=O (stereo partly shown) [Compound 319] = 50 to 70%
3) CC1(Oc2ccc3[nH]nc(-c4cc(N5CCC(CN6CCN(C(C)(C)C7CCN(c8ccc9c(c8F)CN(C8CCC(=O)NC8=O)C9=O)CC7)CC6)CC5)ncn4)c3c2)CC1 (stereo not shown) [Compound 309] = ≥ 70%
4) CC1(Oc2ccc3[nH]nc(-c4cc(N5CCN(C[C@H]6CC[C@H](OC7CCN(c8c(F)cc9c(c8F)CN(C8CCC(=O)NC8=O)C9=O)CC7)CC6)CC5)ncn4)c3c2)CC1 (stereo partly shown) [Compound 286] = ≥ 70%
5) COc1c(N2CCN(C[C@H]3CO[C@H](CN4CCN(c5cc(-c6n[nH]c7cnc(OC8(C)CC8)cc67)ncn5)CC4)CO3)CC2)ccc2c1CN(C1CCC(=O)NC1=O)C2=O (stereo partly shown) [Compound 302] = 50 to 70%
6) COc1c(N2CCN(C[C@H]3C[C@H](OC4CCN(c5cc(-c6[nH]nc7ccc(OC8(C)CC8)cc67)ncn5)CC4)C3)CC2)ccc2c1CN(C1CCC(=O)NC1=O)C2=O (stereo partly shown) [Compound 314] = 50 to 70%
7) COc1c(N2CCC(CN3CCN(C[C@H]4CCN(c5cc(-c6n[nH]c7ccc(OC8(C)CC8)cc67)ncn5)C4)CC3)CC2)ccc2c1CN(C1CCC(=O)NC1=O)C2=O (stereo partly shown) [Compound 303] = 50 to 70%
8) COc1c(N2CCC3(CC2)CN([C@H]2C[C@H](OC4CCN(c5cc(-c6[nH]nc7ccc(OC8(C)CC8)cc67)ncn5)CC4)C2)C3)ccc2c1CN(C1CCC(=O)NC1=O)C2=O (stereo partly shown) [Compound 315] = 50 to 70%
9) COc1c(N2CCC(CN3CCN(CC4CCN(c5cc(-c6n[nH]c7cnc(OC8(C)CC8)cc67)ncn5)CC4)C(C)(C)C3)CC2)ccc2c1CN(C1CCC(=O)NC1=O)C2=O (stereo not shown) [Compound 338] = 50 to 70%

Read the next record carefully.
Exercise: Return Dmax measured with LRRK2 (endogenous, HiBit tagged) (Homo sapiens, UniProt Q5S007) given this molecule: CC1(Oc2ccc3n[nH]c(-c4cc(N5CCC(O[C@H]6C[C@H](CN7CCN(c8ccc9c(c8F)CN(C8CCC(=O)NC8=O)C9=O)CC7)C6)CC5)ncn4)c3c2)CC1 (stereo partly shown) [Compound 351]
Solution: 50 to 70%

----------
testTarget: LRRK2 (endogenous, HiBit tagged) (Homo sapiens, UniProt Q5S007)
Construct: endogenous in cells; host or cells: HEK293 cells with HiBit knock-in at the endogenous LRRK2 locus, stably expressing firefly luciferase
assayProcedure: Endogenous LRRK2 degradation assay, endogenous gene C-terminally HiBit-tagged in HEK293 cells (Nano-Glo Dual Luciferase)
Format: cell-based
conditionSet: endogenous HiBit-tagged LRRK2 in HEK293 cells, 24 hours treatment; read-out: Endogenous WT Dmax
Each entry below carries its recorded Dmax.

The examples below pair each entry with its known result.
1) COc1cc(N2CCC(CN3CCC(F)(CN4CCN(c5cc(-c6n[nH]c7ccc(OC8(C)CC8)cc67)ncn5)CC4)CC3)CC2)cc2c1C(=O)N(C1CCC(=O)NC1=O)C2 (centres unmarked) = ≥ 70%
2) C[C@H]1CN(CC2CCN(c3ccc4c(c3F)CN(C3CCC(=O)NC3=O)C4=O)CC2)CCN1CC1CCN(c2cc(-c3n[nH]c4ccc(OC5(C)CC5)cc34)ncn2)CC1 (some centres unmarked) = 50 to 70%
3) CC1(Oc2ccc3[nH]nc(-c4cc(N5CCN(C[C@H]6CC[C@H](CN7CCN(c8ccc9c(c8Cl)CN(C8CCC(=O)NC8=O)C9=O)CC7)CC6)CC5)ncn4)c3c2)CC1 (some centres unmarked) = 50 to 70%
4) COc1c(N2CCN(C[C@H]3CC[C@H](OC4CCN(c5cc(-c6n[nH]c7ccc(OC8(C)CC8)cc67)ncn5)CC4)CC3)C(C)(C)C2)ccc2c1CN(C1CCC(=O)NC1=O)C2=O (some centres unmarked) = 50 to 70%

Exercise: I would be grateful if you could share the reported Dmax for CC1(Oc2ccc3[nH]nc(-c4ccnc(N5CCN(C[C@H]6CC[C@H](OC7CCN(c8ccc9c(c8F)CN(C8CCC(=O)NC8=O)C9=O)CC7)CC6)CC5)c4)c3c2)CC1 (some centres unmarked) .
Solution: 50 to 70%

Where these numbers come from: patent US12559506B2
